- Assay Summary: CC50 assay (CellTiter-Glo) in Huh-7 HCV replicon cells
- Assay type: cell-based, human
- Condition Label: human, 3 days incubation, CellTiter-Glo readout
Reported Endpoint: CC50 at 3 days

Reference set (2 entries):
CCOc1nc(NCc2cocn2)nc2ccc(-c3ccc(F)cc3)nc12; 5 to 25 µM
CCOc1nc(NCc2ccc(S(N)(=O)=O)cc2)nc2ccc(-c3ccc(NC(=O)NCCN4CCCC4)cc3)nc12; 5 to 25 µM

Sure, the documented CC50 at 3 days for "CS(=O)(=O)N(CCO)c1cccc(-c2ccc3nc(NCc4ccc(S(N)(=O)=O)cc4)nc(NCC(F)F)c3n2)c1" is > 25 µM

Sure, the documented CC50 at 3 days for "CCOc1nc(NCc2ncco2)nc2ccc(-c3ccc(F)cc3)nc12" is > 25 µM

Sure, the documented CC50 at 3 days for "NS(=O)(=O)c1ccc(CNc2nc(NCC(F)(F)F)c3nc(-c4ccc(NC(=O)[C@H]5CCNC5)c(F)c4)ccc3n2)cc1" is < 5 µM

Sure, the documented CC50 at 3 days for "C[C@H](N)C(=O)Nc1ccc(-c2ccc3nc(NCc4ccc(S(N)(=O)=O)cc4)nc(NCC(F)(F)F)c3n2)cc1F" is < 5 µM

----------
- Assay Summary: CC50 assay (CellTiter-Glo) in Huh-7 HCV replicon cells
- Type: cell-based, human
- Condition Label: human, 3 days incubation, CellTiter-Glo readout
Reported Endpoint: CC50 at 3 days

Reference set (8 entries):
NS(=O)(=O)c1ccc(CNc2nc(NCC(F)(F)F)c3nc(-c4ccc(O)cc4)ccc3n2)cc1; > 25 µM
CCOc1nc(NCc2ccc(S(N)(=O)=O)cc2)nc2ccc(-c3ccc(NC(=O)N4CCOCC4)cc3)nc12; 5 to 25 µM
CC1(Oc2nc(NCc3ccc(S(N)(=O)=O)cc3)nc3ccc(-c4ccc(F)cc4)nc23)CC1; < 5 µM
NS(=O)(=O)c1ccc(CNc2nc(NCC(F)(F)F)c3nc(-c4ccc(C(=O)NC5CC5)cc4)ccc3n2)cc1; 5 to 25 µM
CCOc1nc(NCc2ccc(F)cc2)nc2ccc(-c3ccc(NC(=O)C4CC4)cc3)nc12; 5 to 25 µM
NS(=O)(=O)c1ccc(CNc2nc(NCC(F)(F)F)c3nc(-c4ccc(F)c(Cl)c4)ccc3n2)cc1; 5 to 25 µM
CCOc1nc(NCc2ccc(S(N)(=O)=O)cc2)nc2ccc(-c3ccc(NC(=O)[C@H]4CCNC4)cc3)nc12; > 25 µM
CS(=O)(=O)C1CCN(c2nc(NCc3ccc(F)cc3)nc3ccc(-c4ccc(F)cc4)nc23)C1 (stereo not drawn); < 5 µM

Now look at this one.
Sure, the documented CC50 at 3 days for "CCOc1nc(NCc2ccc(S(N)(=O)=O)cc2)nc2ccc(-c3ccc(NC(=O)[C@@H](N)[C@H](C)O)cc3)nc12" is > 25 µM

----------
# reported CC50 at 3 days; entries follow
- Assay Summary: CC50 assay (CellTiter-Glo) in Huh-7 HCV replicon cells
- Assay type: cell-based, human
- Condition Label: human, 3 days incubation, CellTiter-Glo readout

Reference set (2 entries):
CCOc1nc(NCc2ccc(S(N)(=O)=O)cc2)nc2ccc(-c3ccc(NC(=O)NCCN4CCOCC4)cc3)nc12; 5 to 25 µM
CC(C)Nc1cnn(-c2ccc3nc(NCc4ccc(S(N)(=O)=O)cc4)nc(NCC(F)(F)F)c3n2)c1; > 25 µM

Sure, the documented CC50 at 3 days for "O=C(Nc1ccc(-c2ccc3nc(NCc4ccc(F)cc4)nc(NCC(F)(F)F)c3n2)cc1)C1(O)CC1" is 5 to 25 µM

----------
# reported CC50 at 3 days; entries follow
- Assay Summary: CC50 assay (CellTiter-Glo) in Huh-7 HCV replicon cells
- Format: cell-based, human
- Condition Label: human, 3 days incubation, CellTiter-Glo readout

Reference set (5 entries):
CCOc1nc(NCc2ccc(S(N)(=O)=O)cc2)nc2ccc(-c3ccc(NC(=O)C(C)(C)N)cc3)nc12; < 5 µM
CN(C)c1nc(NCc2ccc(F)cc2)nc2ccc(-c3ccc(F)cc3)nc12; > 25 µM
CCOc1nc(NCc2ccc(F)cc2)nc2ccc(-c3ccc(C(=O)NC4(C#N)CC4)cc3)nc12; > 25 µM
Cc1ccc(Nc2nc(NC(C)C)c3nc(-c4ccc(F)cc4)ccc3n2)nn1; 5 to 25 µM
Fc1ccc(-c2ccc3nc(NCCN4CCOCC4)nc(NCC(F)(F)F)c3n2)cc1; < 5 µM

Sure, the documented CC50 at 3 days for "CC(C)(C)OC(=O)NC1CCN(S(=O)(=O)c2cc(-c3ccc4nc(NCc5ccc(S(N)(=O)=O)cc5)nc(NCC(F)(F)F)c4n3)ccc2Cl)CC1" is < 5 µM

Sure, the documented CC50 at 3 days for "NS(=O)(=O)c1ccc(CNc2nc(NC3CC3)c3nc(-c4ccc(NC(=O)C5(O)CC5)cc4)ccc3n2)cc1" is < 5 µM

Sure, the documented CC50 at 3 days for "C[C@H](O)C(=O)Nc1ccc(-c2ccc3nc(NCc4ccc(S(N)(=O)=O)cc4)nc(NCC(F)(F)F)c3n2)cc1F" is < 5 µM

Sure, the documented CC50 at 3 days for "Fc1ccc(-c2ccc3nc(NCc4nnco4)nc(NCC(F)(F)F)c3n2)cc1" is 5 to 25 µM

----------
- Assay Summary: CC50 assay (CellTiter-Glo) in Huh-7 HCV replicon cells
- Format: cell-based, human
- Condition Label: human, 3 days incubation, CellTiter-Glo readout
# reported CC50 at 3 days; entries follow

NS(=O)(=O)c1ccc(CNc2nc(NCC(F)(F)F)c3nc(-c4ccc(F)cc4)ccc3n2)cc1 [Example 149]; 5 to 25 µM
Fc1ccc(CNc2nc(NCCN3CCOCC3)c3nc(-c4ccc(F)cc4)ccc3n2)cc1 [Example 32]; 5 to 25 µM

Now look at this one.
Sure, the documented CC50 at 3 days for Fc1ccc(CNc2nc(O[C@H]3CCOC3)c3nc(-c4ccc(F)cc4)ccc3n2)cc1 [Example 23] is 5 to 25 µM

----------
# reported CC50 at 3 days; entries follow
- Assay Summary: CC50 assay (CellTiter-Glo) in Huh-7 HCV replicon cells
- Type: cell-based, human
- Condition Label: human, 3 days incubation, CellTiter-Glo readout
- Procedure: The anti-HCV activity of the pyrido[3,2-d]pyrimidine derivatives of this invention was tested in a human hepatoma Huh-7 cell line harboring a HCV replicon. The assay comprised the following steps: Step 1: Compound Preparation and Serial Dilution • 1. for water soluble pyrido[3,2-d]pyrimidine derivatives, a volume of 500 μL of solution in cell media (DMEM, 10% FBS, P/S, L-Glutamine) was prepared with a concentration being twice the concentration of the starting final serial dilution concentration. […]

NS(=O)(=O)c1ccc(CNc2nc(Oc3cccc(F)c3)c3nc(-c4ccc(F)cc4)ccc3n2)cc1; 5 to 25 µM
CCOc1nc(NCc2ccc(F)cc2)nc2ccc(-c3ccc(F)nc3)nc12; < 5 µM
CC(C)Nc1nc(NCCN2CCOCC2)nc2ccc(-c3ccc(F)cc3)nc12; 5 to 25 µM
CCOc1nc(NC2(c3ccc(F)cc3)CC2)nc2ccc(-c3ccc(C(=O)NC(C)(C)CN4CCCC4)cc3)nc12; < 5 µM
CN1CCN(c2ccc(CNc3nc(NCC(F)(F)F)c4nc(-c5ccc(F)cc5)ccc4n3)cc2)CC1; < 5 µM

Sure, the documented CC50 at 3 days for "NC(=O)c1ccc(-c2ccc3nc(NCc4ccc(S(N)(=O)=O)cc4)nc(NC4CC4)c3n2)cc1" is > 25 µM

Sure, the documented CC50 at 3 days for "CCOc1nc(NCc2ccc(S(N)(=O)=O)cc2)nc2ccc(-c3ccc(NC(=O)[C@H]4CCNC4)c(F)c3)nc12" is 5 to 25 µM

Sure, the documented CC50 at 3 days for "CCOc1nc(NCc2ccc(F)cc2)nc2ccc(-c3ccc(C(=O)NC(C)(C)CN4CCOCC4)cc3)nc12" is < 5 µM

Sure, the documented CC50 at 3 days for "CCOc1nc(NCCc2ccccc2)nc2ccc(-c3ccc(F)cc3)nc12" is 5 to 25 µM

Sure, the documented CC50 at 3 days for "CCOc1nc(NCc2cccc(F)c2)nc2ccc(-c3ccc(F)cc3)nc12" is 5 to 25 µM

Sure, the documented CC50 at 3 days for "Fc1ccc(CNc2nc(NCC(F)(F)F)c3nc(-c4ccc(F)cc4)ccc3n2)cc1" is 5 to 25 µM

----------
- Assay Summary: CC50 assay (CellTiter-Glo) in Huh-7 HCV replicon cells
- Assay type: cell-based, human
- Condition Label: human, 3 days incubation, CellTiter-Glo readout
# reported CC50 at 3 days; entries follow

NC(=O)Nc1ccc(-c2ccc3nc(NCc4ccc(S(N)(=O)=O)cc4)nc(C4CC4)c3n2)cc1; 5 to 25 µM
CCOc1nc(NCc2ccc(F)cc2)nc2ccc(-c3cccc(NS(=O)(=O)CCN4CCCC4)c3)nc12; < 5 µM

Sure, the documented CC50 at 3 days for "NS(=O)(=O)c1ccc(CNc2nc(NCC(F)(F)F)c3nc(-c4ccnc(C(F)(F)F)c4)ccc3n2)cc1" is > 25 µM

Sure, the documented CC50 at 3 days for "NS(=O)(=O)c1ccc(CNc2nc(NC3CC3)c3nc(-c4ccc(F)c(NS(=O)(=O)C5CC5)c4)ccc3n2)cc1" is < 5 µM

Sure, the documented CC50 at 3 days for "NS(=O)(=O)c1ccc(CNc2nc(NCC(F)(F)F)c3nc(-n4cncn4)ccc3n2)cc1" is > 25 µM

Sure, the documented CC50 at 3 days for "CCNc1nc(NCc2ccc(F)cc2)nc2ccc(-c3ccc(F)cc3)nc12" is 5 to 25 µM

Sure, the documented CC50 at 3 days for "CCOc1nc(NCc2ccc(S(N)(=O)=O)cc2)nc2ccc(-c3ccc(C(N)=O)cc3)nc12" is 5 to 25 µM

Sure, the documented CC50 at 3 days for "CCOc1nc(NCc2ccon2)nc2ccc(-c3ccc(F)cc3)nc12" is > 25 µM

Sure, the documented CC50 at 3 days for "CCOc1nc(NCC(F)(F)F)nc2ccc(-c3ccc(F)cc3)nc12" is 5 to 25 µM

Sure, the documented CC50 at 3 days for "CCOc1nc(NCc2ccc(F)cc2F)nc2ccc(-c3ccc(F)cc3)nc12" is 5 to 25 µM
